Quick reference: self-cleavage of the listed items.
B1: Hairpin Ribozyme (parent)
chain: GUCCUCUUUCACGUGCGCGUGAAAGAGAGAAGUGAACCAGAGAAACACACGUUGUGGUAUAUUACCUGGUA

Variants of: B1
Assay: self-cleavage, relative activity (ratio to wild type); higher = more cleavage; co-transcriptional

Variant notation	self-cleavage
C16G C66A	0.197
G13U G15A	0.491
G27C G57A	0.15
G29C C66G	0.137
C10U G15U	0.843
G34U G51A	1.57
A24G G57A	0.228
G21A G34U	1.08
A35C C65U	0.433
U33G A41U	0.251
G21U G57A	0.148
G51U C65G	0.354
U52G G69C	0.478
A64G A71U	0.287
C16A A24G	0.763
G13A G69U	0.24
G19C U60G	0.541
G1A G54A	0.191
A36C A45G	0.133
C10A C65A	0.556
G42U A71C	0.6
A47G U62C	0.0615
